The following compounds are listed with their measured pIC50 values.
# SYSTEM UNDER TEST: GSK3a (GST-full length GSK3a) (Homo sapiens)
# Construct: GST-full length GSK3a [SignalChem G08-10G]; purchased SignalChem G08-10G
# Sequence (P49840 whole entry): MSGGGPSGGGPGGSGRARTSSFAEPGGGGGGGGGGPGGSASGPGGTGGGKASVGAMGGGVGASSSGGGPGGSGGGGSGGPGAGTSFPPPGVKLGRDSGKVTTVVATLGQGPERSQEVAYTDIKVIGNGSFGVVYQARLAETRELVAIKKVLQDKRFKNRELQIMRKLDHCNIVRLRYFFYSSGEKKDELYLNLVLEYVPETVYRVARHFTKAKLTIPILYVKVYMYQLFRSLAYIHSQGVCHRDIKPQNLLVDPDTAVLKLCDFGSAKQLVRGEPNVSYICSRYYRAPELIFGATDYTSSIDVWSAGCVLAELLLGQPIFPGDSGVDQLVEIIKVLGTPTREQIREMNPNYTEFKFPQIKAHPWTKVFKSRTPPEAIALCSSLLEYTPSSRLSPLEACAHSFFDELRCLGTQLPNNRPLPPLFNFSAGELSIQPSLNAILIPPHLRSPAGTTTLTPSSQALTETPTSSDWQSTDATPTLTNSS
# PROCEDURE TEXT: GSK3a TR-FRET kinase inhibition assay
# Assay type: biochemical
# CONDITION DESCRIPTION: 4 μM ATP; read-out: GSK3α TR-FRET 4 μM ATP GMean IC50
pIC50: −log10 of the molar value.

1) CCC1(c2cccc(C(F)(F)F)c2)C2=C(CC(C)(C)CC2=O)Nc2ncccc21 (single isomer, unassigned) [Compound 1014B] : ≥ 7.00

Input: What value of pIC50 has been reported for the following compound? CCC1(c2cccc(O)c2)C2=C(CC(C)(C)CC2=O)Nc2ncc(F)cc21 (single isomer, unassigned) [Compound 1010B]
Output: ≥ 7.00

Input: Moving on to the next compound: CCC1(c2cccc(-c3ccnc(C)c3C)c2)C2=C(CC(C)(C)CC2=O)Nc2ncccc21 (single isomer, unassigned) [147 A]
Output: 5.30 to 6.00

----------
# SYSTEM UNDER TEST: GSK3a (GST-full length GSK3a) (Homo sapiens)
# Construct: GST-full length GSK3a [SignalChem G08-10G]; purchased SignalChem G08-10G
# PROCEDURE TEXT: GSK3a TR-FRET kinase inhibition assay
# Format: biochemical
# CONDITION DESCRIPTION: 1 mM ATP; Table 3; read-out: GSK3a TR-FRET 1 mM ATP Average IC50
# Procedure: TR-FRET assay was performed in a white, 384 well, low volume, flat bottom plate (Grenier). After a 30 minute preincubation in assay buffer with the indicated concentration of compound, the kinase activity was initiated by the addition of the substrates. […] After 60 min at room temperature the plate was read on Envision plate reader using Ex: 340 nm, Em: 615 nm and […]. The normalized 665/615 Signal ratio versus log compound concentration was analyzed by XLFIT to yield IC50 values.
The following molecules are listed with their measured IC50 values.

# count of solved cases: 5
1) CC1(C)CC(=O)C2=C(C1)Nc1ncc(F)cc1C2(C)c1cccc(-c2c(F)cncc2CC2CC2)c1 (single isomer, unassigned) [Compound 169A] : 0.1 to 1 µM
2) Cc1c(F)cnc2c1C(C)(c1cccc(S(C)(=O)=O)c1)C1=C(CC(C)(C)CC1=O)N2 (single isomer, unassigned) [Compound 144A] : 0.1 to 1 µM
3) CC1(C)CC(=O)C2=C(C1)Nc1nccc(CC(F)(F)F)c1C2(C)c1ccccc1 (single isomer, unassigned) [Compound 132B] : 5 to 20 µM
4) CC1(C)CC(=O)C2=C(C1)Nc1ncc(F)c(C#N)c1C2(C)c1cccc(S(C)(=O)=O)c1 (single isomer, unassigned) [Compound 148B] : 5 to 20 µM
5) CC(C)(C)Cc1cnc2c(c1)C(C)(c1ccccc1)C1=C(CC(C)(C)CC1=O)N2 (single isomer, unassigned) [Compound 129B] : 5 to 20 µM

Input: What value of IC50 has been reported for the following molecule? CC1(C)CC(=O)C2=C(C1)Nc1ncccc1C2(C)c1cccc(-c2ccncc2)c1 (single isomer, unassigned) [Compound 131B]
Output: 1 to 5 µM

Input: Moving on to the next molecule: CC1(C)CC(=O)C2=C(C1)Nc1ncccc1C2(C)c1cccc(-c2ccncc2N2CCOCC2)c1 (single isomer, unassigned) [Compound 164A]
Output: 1 to 5 µM

All figures here come from patent US20260103465A1.
